Data provenance: patent US12723078

systemTested: T1, recombinant LILRB1 (human, UniProt Q8NHL6 24-461)
T1 construct: LILRB1-Fc proteins were also made; also called LILRB1 recombinant proteins
T1 sequence (Q8NHL6 24-461 limits assumed): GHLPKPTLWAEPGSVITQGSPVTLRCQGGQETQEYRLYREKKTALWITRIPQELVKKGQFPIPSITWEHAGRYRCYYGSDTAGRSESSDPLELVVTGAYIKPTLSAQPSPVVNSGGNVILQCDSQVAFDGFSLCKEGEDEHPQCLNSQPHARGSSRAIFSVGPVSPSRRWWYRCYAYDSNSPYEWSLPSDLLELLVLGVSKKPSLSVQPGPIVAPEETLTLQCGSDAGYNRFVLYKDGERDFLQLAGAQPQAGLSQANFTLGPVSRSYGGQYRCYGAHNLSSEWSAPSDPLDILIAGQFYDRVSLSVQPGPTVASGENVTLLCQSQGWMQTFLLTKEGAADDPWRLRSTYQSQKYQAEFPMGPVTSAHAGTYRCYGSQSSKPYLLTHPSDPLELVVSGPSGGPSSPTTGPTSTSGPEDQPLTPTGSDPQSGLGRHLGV
procedureDetails: ELISA, coated recombinant LILRB1, antibody titration;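 further: serially diluted anti-LILRB1 antibodies incubated 60 min at 37 °C on plates coated with 50 ng/well recombinant protein, TMB colorimetric development read as absorbance at 450 nm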
measuredMetric: EC50 (ng/mL)

INSERT INTO assay_data (binder, measuredmetric, unitname, reportedvalue) VALUES
  ('B1-#5 (antibody, V domains shown, recombinant rabbit IgG) VH: EQSLEESGGDLVKPEGSLTLTCTASELSFSSAYYMCWVRQAPGKGLEWIGCIYSGDGDTYYANWAKGRFTISKTSSTTVTLQMTSLTDADTATYFCARALDSHYSSFDLWGPGTLVTISS VL: ELDMTQTPSSVSAAVGDTVTIKCQASQSIYRYLAWYQQKPGQRPSLLIYYGSDLASGVPSRFSGSGSGTEFTLTISDLECADAASYYCQTTYDDYHNGWAFGGGTNVEIN', 'EC50', 'ng/mL', 6.02),
  ('B1-#27 (antibody, V domains shown, recombinant rabbit IgG) VH: EQSVKESGGGLVQPEGSLTLTCTVSGFSFSGSYWICWVRQAPGKGLEWIACIYGDSIATYYPNWAKGRFTISKTSSTTVTLQMASLTGADTATYFCARDRNGGSGAYGWDLWGPGTLVTISS VL: ELDLTQTPASVSEPVGGTVTITCQASQSISSYLSWYQQTPGQPPKLLIYKASTLASGVPSRFKGSGSGTEFTLTISDLECADAATYYCQSYYYISATVDNTFGGGTEVEIK', 'EC50', 'ng/mL', 7.94),
  ('B1-#15 (antibody, V domains shown, recombinant rabbit IgG) VH: EQSVEESGGDLVKPGASLTLTCTASGFSSSSSAYMCWVRQAPGKGLEWIACIFIGSGSDSYYATWAKGRFTISKTSSTTVTLQMTSLTAADTATYFCARNTYDWNGYIYGPCYFGLWGPGTLVTISS VL: ELDLTQTPSSVEAAVGGTVTIKCQASQSIYNYLAWYQQKPGHSPKLLIYDVSKLASGVSSRFKGSGSGTEFTLTISDLECADAATYYCQSYYGNTVSFTFGGGTEVEIK', 'EC50', 'ng/mL', 9.3);
